Assay: gradient 5% acetonitrile 3 min, to 50% in 2 min, to 85% in 15 min, held 3 min, 100 µL/min
Conditions: column: Zorbax Extend-C18 2.1 x 50 mm; eluents: water / acetonitrile, 0.1% formic acid
Rule: RP-LC retention time of 800 s or more gives Criterion met; anything lower gives Criterion not met.

# count of solved cases: 4
# compound, group
data = [
    ("CC(C)NC(=O)N1CC=C(c2cn(C(C)C)c3ncccc23)CC1", "Criterion not met"),
    ("CCCCC(=O)Nc1cc(C(=O)O)ccc1N(C)CC1COCCO1 (configuration not stated)", "Criterion not met"),
    ("Cc1cc(=O)n(CC(=O)N2CCc3ccccc32)c(N2CCCCC2)n1", "Criterion not met"),
    ("CCc1ccc(NS(=O)(=O)c2c(C)sc(C)c2-c2cc(C(F)(F)F)on2)cc1", "Criterion met"),
]

Pending compound:
*Q* In plain terms: is recorded RP-LC retention time at least 800 s for COc1cccc(NC(=O)N2CCC(c3cc(N)on3)CC2)c1 ?
*A* Criterion not met
